- System: 439559-082-T-J2-PDC spheroid viability;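 also: spheroids exposed to compounds for seven days before readout; 100% = DMSO vehicle control viability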
- assayProcedure: Anticancer human tumor 439559-082-T-J2-PDC patient-derived colon adenocarcinoma cell line growth inhibition [POLQ]
- conditionLabel: second compound 1 µM; first compound 3.16 µM; stronger effect = lower value; spheroids with HUVEC and MSC
# label = 1.0 if viability, T/C < 80% else 0.0

API: query returns whether the compound falls strictly under 80% in viability, T/C. Query: C#Cc1c(F)ccc2cc(O)cc(-c3ncc4c(N5CC6CCC(C5)N6)nc(OCC56CCCN5CC(F)C6)nc4c3F)c12 (stereo unspecified) + Nc1ccc(C#CCN(C(=O)Cc2ncc(C(F)(F)F)cc2C(F)(F)F)c2ccc(F)cc2)nn1
1.0

API: query returns whether the compound falls strictly under 80% in viability, T/C. Query: COc1cc2cc(C(=O)CCC(=O)O)sc2cc1OC + COC1C(OC(N)=O)C(O)C(Oc2ccc3c(O)c(NC(=O)c4ccc(O)c(CC=C(C)C)c4)c(=O)oc3c2C)OC1(C)C
0.0

API: query returns whether the compound falls strictly under 80% in viability, T/C. Query: CC1COCCN1c1cc(C2(S(C)(=N)=O)CC2)nc(-c2ccnc3[nH]ccc23)n1 (stereo unspecified) + Nc1ccc(C#CCN(C(=O)Cc2ncc(C(F)(F)F)cc2C(F)(F)F)c2ccc(F)cc2)nn1
1.0

API: query returns whether the compound falls strictly under 80% in viability, T/C. Query: CNCc1ccc(-c2[nH]c3cc(F)cc4c3c2CCNC4=O)cc1 + Cc1cccc(N(C)C(=O)C2C(O)CCN2c2nc(C)cc(C(F)(F)F)c2C#N)c1
0.0

API: query returns whether the compound falls strictly under 80% in viability, T/C. Query: COc1cc2cc(C(=O)CCC(=O)O)sc2cc1OC + Nc1ccc(C#CCN(C(=O)Cc2ncc(C(F)(F)F)cc2C(F)(F)F)c2ccc(F)cc2)nn1
0.0

Recorded values, source PubChem BioAssay AID1963841.
